The values you see were collected from patent US8580965B2.

# measured target: human B1R receptor (bradykinin 1 receptor) (Homo sapiens)
# Construct: host or cells: CHO K1 cells (hB1R cells)
# Sequence (P46663 whole entry): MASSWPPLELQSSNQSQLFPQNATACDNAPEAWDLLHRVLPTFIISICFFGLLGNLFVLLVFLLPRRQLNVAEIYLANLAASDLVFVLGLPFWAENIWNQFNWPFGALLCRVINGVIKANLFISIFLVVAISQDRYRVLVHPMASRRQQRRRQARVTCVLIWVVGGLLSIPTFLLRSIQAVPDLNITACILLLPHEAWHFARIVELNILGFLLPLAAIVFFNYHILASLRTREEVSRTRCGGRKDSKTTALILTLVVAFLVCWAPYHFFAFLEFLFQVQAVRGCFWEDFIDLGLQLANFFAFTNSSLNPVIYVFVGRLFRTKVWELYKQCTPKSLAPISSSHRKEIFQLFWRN
# method summary: FLIPR Ca2+ assay (Fluo-4) on CHO K1 cells stably transfected with the human B1R gene; % activation and % inhibition at 10 μM
# Assay type: cell-based
# reported conditions: CHO-K1, test substance 10 μM; CHO K1 hB1R cells; Ca2+ inflow after 0.5 nM Lys-Des-Arg9-bradykinin; read-out: B1R antagonism, human [10 μM] % inhibition
reported endpoint: inhibition at 10 µM (%)

compound=COc1cc(C)c(S(=O)(=O)N2CCN(CCOCC(=O)N3CCC(O)(c4ccccn4)CC3)CC2)c(C)c1C measured_target="human B1R receptor (bradykinin 1 receptor) (Homo sapiens)" reading_unit=% reported_result=-4.32
compound="Cc1cc(C)c(S(=O)(=O)N2CCC(OCC(=O)N3CCC(O)(c4ccccn4)CC3)C2)c(C)c1 (stereo not shown)" measured_target="human B1R receptor (bradykinin 1 receptor) (Homo sapiens)" reading_unit=% reported_result=6.86
compound="Cc1cc(C)c(S(=O)(=O)N2Cc3ccccc3CC2COCC(=O)N2CCC(O)(Cc3ccccc3)CC2)c(C)c1 (stereo not shown)" measured_target="human B1R receptor (bradykinin 1 receptor) (Homo sapiens)" reading_unit=% reported_result=14.9
compound=Cc1cc(Cl)cc(Cl)c1S(=O)(=O)N(C)CCOCC(=O)N1CCC(O)(c2ccccn2)CC1 measured_target="human B1R receptor (bradykinin 1 receptor) (Homo sapiens)" reading_unit=% reported_result=106
compound="COc1cc(C)c(S(=O)(=O)N2CCCCC2COCC(=O)N2CCC(O)(c3ccc(Br)cc3)CC2)c(C)c1 (stereo not shown)" measured_target="human B1R receptor (bradykinin 1 receptor) (Homo sapiens)" reading_unit=% reported_result=104

[I] O=C(COCC1Cc2ccccc2CN1S(=O)(=O)c1ccccc1)N1CCC(O)(c2ccccn2)CC1 (stereo not shown)
[II] CN(CCOCC(=O)N1CCC(O)(c2ccc(Cl)c(C(F)(F)F)c2)CC1)S(=O)(=O)c1cc(Cl)sc1Cl
## Input Select one: I or II . Criterion: greater recorded inhibition at 10 µM. Give the label of your selection.
## Output II
(II: 42.9%, I: -7.27%)
